# procedure-details: Acid dissociation constant (pKa) by photometric titration in aqueous media
# Assay type: physicochemical
# assay-conditions: acid dissociation constant pKa
reported-endpoint: pKa
Provide a numeric answer; units are not to be included.

// Input: C#C[C@]1(O)CC[C@H]2[C@@H]3CCc4cc(O)ccc4[C@H]3CC[C@@]21C . Output its pKa only. 10.2
